Reference for the values: patent US9637483B2

Consider the following compounds; for each one, report its inhibition at 1 µM.
Target: JAK3 (Homo sapiens, UniProt P52333)
Construct: purchased Invitrogen
Sequence (P52333 whole entry): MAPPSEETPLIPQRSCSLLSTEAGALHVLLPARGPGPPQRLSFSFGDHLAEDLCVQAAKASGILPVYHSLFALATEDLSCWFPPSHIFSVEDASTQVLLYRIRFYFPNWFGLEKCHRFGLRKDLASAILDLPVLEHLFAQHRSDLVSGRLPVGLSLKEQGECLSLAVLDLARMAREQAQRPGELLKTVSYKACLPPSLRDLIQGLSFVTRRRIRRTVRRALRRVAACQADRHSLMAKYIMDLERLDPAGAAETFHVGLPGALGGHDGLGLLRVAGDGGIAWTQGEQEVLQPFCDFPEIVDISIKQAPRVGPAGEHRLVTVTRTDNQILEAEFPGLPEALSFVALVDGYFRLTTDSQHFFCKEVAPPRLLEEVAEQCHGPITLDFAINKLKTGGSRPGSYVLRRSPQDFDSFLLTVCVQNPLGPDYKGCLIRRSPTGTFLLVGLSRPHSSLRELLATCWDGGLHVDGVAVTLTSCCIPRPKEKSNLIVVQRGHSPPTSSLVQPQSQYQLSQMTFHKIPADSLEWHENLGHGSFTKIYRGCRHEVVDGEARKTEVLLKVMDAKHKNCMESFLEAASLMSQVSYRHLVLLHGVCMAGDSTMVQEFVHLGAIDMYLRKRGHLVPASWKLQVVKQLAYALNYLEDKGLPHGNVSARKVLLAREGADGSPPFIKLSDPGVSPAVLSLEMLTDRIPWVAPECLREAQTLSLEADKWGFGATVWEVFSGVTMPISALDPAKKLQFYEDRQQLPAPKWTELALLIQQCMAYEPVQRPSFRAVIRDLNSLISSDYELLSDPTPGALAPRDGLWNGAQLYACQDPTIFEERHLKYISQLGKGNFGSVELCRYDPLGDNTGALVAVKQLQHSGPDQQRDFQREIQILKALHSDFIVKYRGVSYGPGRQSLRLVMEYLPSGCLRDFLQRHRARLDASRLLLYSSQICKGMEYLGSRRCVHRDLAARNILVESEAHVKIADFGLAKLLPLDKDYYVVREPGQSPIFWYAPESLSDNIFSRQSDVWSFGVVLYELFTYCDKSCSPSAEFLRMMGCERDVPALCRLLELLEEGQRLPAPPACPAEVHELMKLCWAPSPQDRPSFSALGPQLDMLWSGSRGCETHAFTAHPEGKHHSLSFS
Experiment: JAK3 enzyme inhibition test (LANCE method)
Format: biochemical
Conditions: 1 μM test compound; read-out: JAK3 enzyme inhibitory activity (%, 1 μM)
Protocol: JAK3 enzyme inhibitory activity of test compounds was measured by the LANCE method (PerkinElmer). First, a test compound diluted with assay buffer (50 mM HEPES (pH 7.5), 10 mM MgCl2, 1 mM EGTA, 2 mM DTT, 0.01% Tween20, 0.01% BSA) was added to a 384-well plate by 2 μL each. Then, a JAK3 (Invitrogen) solution and a fluorescence-labeled peptide substrate (ULight-JAK1, PerkinElmer) solution diluted with assay buffer to 12 ng/mL and 300 nM, respectively, were added by 2 μL each. […]
Answers are plain numbers, in %.

Quick batch: inhibition at 1 µM for everything below.
1. CC(C)[C@H](C)n1cc(-c2cc(N3CCC4(CC3)COC4)n(C)n2)c2[nH]nc(N)c2c1=O
2. COC[C@@H]1CCCN1c1cc(-c2cn([C@@H](C)C(C)C)c(=O)c3c(N)n[nH]c23)nn1C
3. Cn1nc(-c2cn(C(C3CC3)C3CC3)c(=O)c3c(N)n[nH]c23)cc1N1CC[C@@H](O)C1
4. CN(C)C[C@H]1CCCN1c1cc(-c2cn(-c3c(F)cccc3F)c(=O)c3c(N)n[nH]c23)nn1C
5. CC1CCCCC1n1cc(-c2cc(C(C)(C)O)n(C)n2)c2[nH]nc(N)c2c1=O (racemic) [Example 116]
6. Cn1nc(-c2cn(C(C3CC3)C3CC3)c(=O)c3c(N)n[nH]c23)cc1C1CCCCC1

Output:
100
98
99
99
101
104

Quick batch: inhibition at 1 µM for everything below.
1. CO[C@H]1CCN(c2cc(-c3cn([C@@H](C)C(C)C)c(=O)c4c(N)n[nH]c34)nn2C)C1
2. CC(C)[C@H](C)n1cc(-c2cc(C3=CCOCC3)n(C)n2)c2[nH]nc(N)c2c1=O
3. Cn1nc(-c2cn(C(C3CC3)C(F)(F)F)c(=O)c3c(N)n[nH]c23)cc1N1CCOCC1 (stereo not drawn)
4. CC(=O)NCC(C)(C)c1cc(-c2cn([C@@H](C)C(C)C)c(=O)c3c(N)n[nH]c23)nn1C
5. CC(C)[C@H](C)n1cc(-c2cc(N3CCS(=O)(=O)CC3)n(CC(F)(F)F)n2)c2[nH]nc(N)c2c1=O

Output:
[99, 100, 100, 97, 67]

Quick batch: inhibition at 1 µM for everything below.
1. COC1(c2cc(-c3cn(-c4c(F)cccc4F)c(=O)c4c(N)n[nH]c34)nn2C)CN(C(=O)C(C)C)C1
2. COC1(c2cc(-c3cn([C@@H](C)C4CC4)c(=O)c4c(N)n[nH]c34)nn2C)CN(C(=O)C(C)C)C1
3. COC1(c2cc(-c3cn(C(C4CC4)C4CC4)c(=O)c4c(N)n[nH]c34)nn2C)CN(S(=O)(=O)C(C)C)C1
4. CC(C)[C@H](C)n1cc(-c2cc(C(C)(C)O)n(C)n2)c2[nH]nc(N)c2c1=O

Output:
[99, 99, 99, 100]
